Known pEC50 of a selection of molecules
biological target: Melatonin receptor type 1C (Xenopus laevis); assay: Agonist activity at Melatonin receptor type 1C in Xenopus laevis melanophores assessed as induction of pigment aggregation response by microtiter plate reader based absorbance detection assay
Reminder that pEC50 means the negative base-10 logarithm of the concentration expressed in mol/L.

What pEC50 value was documented for this molecule, COc1ccc(CCNC(C)=O)cc1F ?
5.62

// query: CCCC(=O)NCc1cc(OC)ccc1F
5.87

----------
molecular target: Melatonin receptor type 1C (Xenopus laevis); test: Agonist activity at Melatonin receptor type 1C in Xenopus laevis melanophores assessed as induction of pigment aggregation response by microtiter plate reader based absorbance detection assay
Documented EC50 across a set of compounds
Report as a plain number; the unit nM is understood.

Reference set (2 entries):
INSERT INTO results (smiles_text, uom, observed) VALUES
  ('CCCC(=O)NCCCc1ccc(F)c(OC)c1', 'nM', 0.891),
  ('CCCC(=O)NCc1ccc(F)c(OC)c1', 'nM', 2510);

Please find the next compound below.
Which EC50 value belongs to CCC(=O)NCC(C)(C)c1ccc(OC)c(F)c1 ?
93.3

----------
Target: Melatonin receptor type 1C (Xenopus laevis) (UniProt P49219)
Sequence (whole entry): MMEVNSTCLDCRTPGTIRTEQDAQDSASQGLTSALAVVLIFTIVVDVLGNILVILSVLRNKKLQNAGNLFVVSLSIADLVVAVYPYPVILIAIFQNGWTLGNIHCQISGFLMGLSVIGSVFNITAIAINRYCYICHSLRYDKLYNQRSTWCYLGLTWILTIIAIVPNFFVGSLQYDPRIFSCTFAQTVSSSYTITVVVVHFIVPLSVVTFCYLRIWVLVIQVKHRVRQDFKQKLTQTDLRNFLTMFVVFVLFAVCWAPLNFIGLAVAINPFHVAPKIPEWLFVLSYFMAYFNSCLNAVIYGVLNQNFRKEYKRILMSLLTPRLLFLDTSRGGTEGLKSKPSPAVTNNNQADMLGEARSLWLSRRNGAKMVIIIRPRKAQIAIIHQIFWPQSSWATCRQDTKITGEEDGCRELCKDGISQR
Assay: Agonist activity at Melatonin receptor type 1C in Xenopus laevis melanophores assessed as induction of pigment aggregation response by microtiter plate reader based absorbance detection assay relative to melatonin
Short version: Efficacy at least 80% is condition met, less is condition not met.

INSERT INTO results (compound, label_value) VALUES
  ('COc1cc(CNC(C)=O)ccc1F', 'condition met'),
  ('COc1cc(CCNC(C)=O)ccc1F', 'condition met'),
  ('CCCC(=O)NCCCc1cc(OC)ccc1F', 'condition met'),
  ('COc1ccc(C(C)(C)CNC(C)=O)cc1F', 'condition met');

Attention now shifts to the item below.
I'd appreciate it if you could say whether CCC(=O)NCCc1ccc(F)c(OC)c1 has Efficacy at least equal to 80%.
condition met

----------
A collection of compounds and their measured log10 EC50
Target: Melatonin receptor type 1C (Xenopus laevis, UniProt P49219)
Sequence (P49219 whole entry): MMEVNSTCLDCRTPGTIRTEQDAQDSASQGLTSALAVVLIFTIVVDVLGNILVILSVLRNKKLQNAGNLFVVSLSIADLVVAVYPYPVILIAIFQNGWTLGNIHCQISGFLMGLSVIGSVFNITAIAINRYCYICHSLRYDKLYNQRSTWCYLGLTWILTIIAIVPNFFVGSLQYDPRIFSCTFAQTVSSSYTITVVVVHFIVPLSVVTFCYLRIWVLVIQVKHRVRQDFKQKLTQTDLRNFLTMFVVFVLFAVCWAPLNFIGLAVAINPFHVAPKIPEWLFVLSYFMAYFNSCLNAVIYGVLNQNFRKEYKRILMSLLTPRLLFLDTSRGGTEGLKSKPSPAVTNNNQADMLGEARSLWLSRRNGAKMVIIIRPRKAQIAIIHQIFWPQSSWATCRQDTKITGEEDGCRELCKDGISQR
Experiment: Agonist activity at Melatonin receptor type 1C in Xenopus laevis melanophores assessed as induction of pigment aggregation response by microtiter plate reader based absorbance detection assay
Hi team, quick reminder: these entries are log10 of EC50 (nM).

INSERT INTO assay_data (smiles_text, observed) VALUES
  ('COc1cc(CCNC(C)=O)ccc1F', 2.44),
  ('CCCC(=O)NCC(C)(C)c1cc(OC)ccc1F', 1.99),
  ('CCC(=O)NCCc1ccc(F)c(OC)c1', 1.93),
  ('CCCC(=O)NCC(C)(C)c1ccc(OC)c(F)c1', 1.90),
  ('COc1ccc(F)c(CCNC(C)=O)c1', 3.39);

What measured log10 EC50 goes with CCC(=O)NCc1cc(OC)ccc1F ?
3.38

CCCC(=O)NCCc1ccc(F)c(OC)c1 , same question.
1.82

Values compiled from ChEMBL document CHEMBL4368894.
